tested on: DLD-1; assay: Cytotoxicity against human DLD1 cells after 3 days by methylene blue staining; type: functional; conditions: DLD-1, 72 h, read-out: ED50 (the source's name)
Please go through the items and note down their log10 of EC50.
Lab note - EC50 converted to log10 from values in µg/mL.

Ask: Kindly state the measured log10 of EC50 obtained for `C=CC(=C)CC[C@]1(C)[C@H]2C[C@H](OC(=O)CCC)C=C3[C@H](OC(C)=O)O[C@H](OC(C)=O)[C@@]32[C@H](O)[C@H](OC(C)=O)[C@@H]1C` with DLD-1.
Reply: 0.64

Ask: Kindly state the measured log10 of EC50 obtained for C=CC(=C)CC[C@]1(C)[C@H]2C[C@H](OC(=O)C(C)CC)C=C3[C@H](OC(=O)CCC)O[C@H](OC(C)=O)[C@@]32[C@H](O)[C@H](OC(C)=O)[C@@H]1C (stereo partly specified) with DLD-1.
Reply: 0.26

Ask: Kindly state the measured log10 of EC50 obtained for C=CC(=C)CC[C@]1(C)[C@H]2C[C@H](OC(=O)C(C)CC)C=C3[C@H](OC(C)=O)O[C@H](OC(C)=O)[C@@]32[C@H](O)C[C@@H]1C (relative stereo) with DLD-1.
Reply: 0.07

Ask: Kindly state the measured log10 of EC50 obtained for `C=CC(=C)CC[C@]1(C)[C@H]2C[C@H](OC(=O)CC(C)C)C=C3[C@H](OC(C)=O)O[C@H](OC(C)=O)[C@@]32[C@H](O)[C@H](OC(C)=O)[C@@H]1C` with DLD-1.
Reply: 0.40

Ask: Kindly state the measured log10 of EC50 obtained for C=CC(=C)CC[C@]1(C)[C@H]2C[C@H](OC(=O)C(C)CC)C=C3[C@H](OC(C)=O)O[C@H](OC(C)=O)[C@@]32[C@H](OC(=O)CCC)C[C@@H]1C (stereo partly specified) with DLD-1.
Reply: 1.15

Ask: Kindly state the measured log10 of EC50 obtained for `CO[C@@]12[C@H](COC(N)=O)C3=C(C(=O)C(C)=C(N)C3=O)N1C[C@@H]1N[C@@H]12` with DLD-1.
Reply: -1.00

---

test: Cytotoxicity against human medulloblastoma cells after 3 days by methylene blue staining; assay type: functional; conditions: Medulloblastoma cell, 72 h, read-out: ED50 (the source's name)
measuredParameter: log10 of EC50 (log10 of the value in µg/mL)
Lab note - EC50 converted to log10 from values in µg/mL.

Ask: // returns reported log10 of EC50 for input `CO[C@@]12[C@H](COC(N)=O)C3=C(C(=O)C(C)=C(N)C3=O)N1C[C@@H]1N[C@@H]12`
Reply: -1.00

Ask: // returns reported log10 of EC50 for input C=CC(=C)CC[C@]1(C)[C@H]2C[C@H](OC(=O)C(C)CC)C=C3[C@H](OC(C)=O)O[C@H](OC(C)=O)[C@@]32[C@H](OC(=O)CCC)C[C@@H]1C (stereo partly specified)
Reply: 1.16

Ask: // returns reported log10 of EC50 for input C=CC(=C)CC[C@]1(C)[C@H]2C[C@H](OC(=O)C(C)CC)C=C3[C@H](OC(=O)CCC)O[C@H](OC(C)=O)[C@@]32[C@H](O)[C@H](OC(C)=O)[C@@H]1C (stereo partly specified)
Reply: 0.38

Ask: // returns reported log10 of EC50 for input C=CC(=C)CC[C@]1(C)[C@H]2C[C@H](OC(=O)C(C)CC)C=C3[C@H](OC(C)=O)O[C@H](OC(C)=O)[C@@]32[C@H](O)C[C@@H]1C (relative stereo)
Reply: 0.29

Ask: // returns reported log10 of EC50 for input `C=CC(=C)CC[C@]1(C)[C@H]2C[C@H](OC(=O)CCC)C=C3[C@H](OC(C)=O)O[C@H](OC(C)=O)[C@@]32[C@H](O)[C@H](OC(C)=O)[C@@H]1C`
Reply: 0.51

Ask: // returns reported log10 of EC50 for input `C=CC(=C)CC[C@]1(C)[C@H]2C[C@H](OC(=O)CC(C)C)C=C3[C@H](OC(C)=O)O[C@H](OC(C)=O)[C@@]32[C@H](O)[C@H](OC(C)=O)[C@@H]1C`
Reply: 0.29
